# method-notes: Toxicity liver stage against HepG2, at 10uM
# Assay type: cell-based
# Set-up: test concentration 10 uM, cell line HepG2-A16-CD81EGFP
# condition: human, HepG2-A16-CD81EGFP cells; read-out: INHIBITION
Attribute: cytotoxicity at 10 µM
Output spec: scalar in %, unitless text.

• COc1ccnc(NC2CCN(CC(=O)Nc3ccccc3)CC2)n1 = -11
• CNC(=O)NC(=O)C(C)N1CCCc2cc(OC)ccc2C1 (stereo not drawn) = 9.77
• COc1ccc(CC(=O)NC2CCN(CC(F)F)CC2)cc1OC = -8.48
• O=C(c1ccc2ccc(N3CCN(CC4CC4)CC3)n2c1)N1CCCO1 = 9.81
• CCN(Cc1ccc(C#N)cc1F)C(=O)CN(C)CC(N)=O = 7.52
• CC(C)c1nnc2n1CCN(C(=O)c1ccc3c(c1)COC3)C2 = -6.22
• CCc1cnc2c(c1NCc1ccc(OC)cc1)c(=O)n(C)c(=O)n2C = 5.79

Query :: I would be grateful if you could share the reported cytotoxicity at 10 µM for CCOCC(O)CN1CCN(C(=O)CC(C)(C)C)CC1 (stereo not drawn) .
Result :: -5.95
